experiment: Restrictive medium S. cerevisiae growth inhibition, OD615, pilot screen of yeast lifespan reduction project, restrictive growth control (AID 706); details: OD615, 48 h, at 10 µM, stronger effect = higher value;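 note: modified DeaD lifespan yeast strain shifted to restrictive glucose medium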
The source made the active and inactive calls.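 Rule for the calls: active = growth inhibition above a set limit, 3 SD over mean compound inhibition, in both replicates (cut at about 43% in these data); inconclusive = above the limit in only one replicate; inactive = at or below the limit in both replicates.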

| molecule | growth inhibition |
| --- | --- |
| COc1ccccc1NC(=O)N1CCN(c2ccccn2)CC1 | -7.1% (inactive) |
| CN1CCN(S(=O)(=O)c2cccc(S(=O)(=O)c3ccc(Cl)c(Cl)c3)c2)CC1 | -7.33% (inactive) |
| COc1ccc(N(CC(=O)Nc2ccc(C)cn2)S(=O)(=O)c2c(C)nn(C)c2C)cc1 | -9.45% (inactive) |
| CCC(=O)Nc1ccccc1C(=O)N1CCN(Cc2ccccc2)CC1 | 3.03% (inactive) |
| CC1(C)CC(=O)c2sc(NC(=O)CN3C(=O)CCC3=O)nc2C1 | 0.48% (inactive) |
| CCOC(=O)c1sc(NC(=O)c2cccnc2)nc1C | -2% (inactive) |
| CCOC(=O)C(C)Sc1ncnc2nc[nH]c12 (configuration not stated) | -25.9% (inactive) |
| O=S(=O)(c1ccccc1)n1ccc2ccccc21 | 5.11% (inactive) |
| CCCc1ccc(OCC(O)CN2CCN(c3ccccc3)CC2)cc1 (configuration not stated) | 3.57% (inactive) |
| COC(=O)c1ccc(NC(=O)CNC(=O)C2CCCCC2)cc1 | -0.73% (inactive) |
| O/N=C1/CCCSc2ccccc21 | -16.8% (inactive) |
| COc1cc(CO)cc(Br)c1OCC(=O)O | -3.28% (inactive) |

Source of measurements: PubChem BioAssay
